target.system: TYK2 (Homo sapiens, UniProt P29597)
Sequence (P29597 871-1187 limits assumed): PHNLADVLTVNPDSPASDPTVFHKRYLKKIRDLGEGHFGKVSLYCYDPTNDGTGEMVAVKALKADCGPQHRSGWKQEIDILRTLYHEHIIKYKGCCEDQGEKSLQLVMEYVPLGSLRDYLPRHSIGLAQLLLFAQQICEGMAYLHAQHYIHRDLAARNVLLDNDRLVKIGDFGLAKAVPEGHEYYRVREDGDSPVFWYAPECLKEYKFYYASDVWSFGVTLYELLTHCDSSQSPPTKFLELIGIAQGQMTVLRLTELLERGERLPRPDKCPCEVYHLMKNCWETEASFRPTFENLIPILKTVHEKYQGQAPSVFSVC
measurement.protocol: TYK2 kinase inhibition, ADP-Glo luminescence assay
Format: biochemical
condition.summary: substrate IRS1
Examples of compounds with documented IC50 follow.
measurement.label: IC50 (nM)

compound: CCc1cc(O)c(F)cc1-c1ccc2c(-c3nc(CN4CC5CCC4CC5)c[nH]3)n[nH]c2c1 [Ex-30]
units: nM
endpoint.result: 30

compound: CCc1cc(O)c(F)cc1-c1ccc2c(-c3nc(CNC(=O)N(C)CCO)c[nH]3)n[nH]c2c1 [Ex-16]
units: nM
endpoint.result: 0.97

compound: CCc1cc(O)c(F)cc1-c1ccc2c(-c3nc(CNC(=O)C4CC4)c[nH]3)n[nH]c2c1 [MDI-302]
units: nM
endpoint.result: 12.9

compound: CCc1cc(O)c(F)cc1-c1ccc2c(-c3nc(CNS(=O)(=O)C(C)C)c[nH]3)n[nH]c2c1 [Ex-25]
units: nM
endpoint.result: 7

compound: CCc1cc(O)c(F)cc1-c1ccc2c(-c3nc(CNCC4CC4)c[nH]3)n[nH]c2c1 [Ex-17]
units: nM
endpoint.result: 6.5

compound: CCc1cc(O)c(F)cc1-c1ccc2c(-c3nc(CNC(=O)N4CCN(C)CC4)c[nH]3)n[nH]c2c1 [Ex-37]
units: nM
endpoint.result: 1.9

compound: CCc1cc(O)c(F)cc1-c1ccc2c(-c3nc(CNc4ccccn4)c[nH]3)n[nH]c2c1 [Ex-33]
units: nM
endpoint.result: 13.3

compound: CCc1cc(O)c(F)cc1-c1ccc2c(-c3nc(CNC(=O)N4CC[C@H](O)C4)c[nH]3)n[nH]c2c1 [Ex-23]
units: nM
endpoint.result: 0.96

compound: CCc1cc(O)c(F)cc1-c1ccc2c(-c3nc(CN4CCN(CC)CC4)c[nH]3)n[nH]c2c1 [Ex-38]
units: nM
endpoint.result: 11

compound: CCc1cc(O)c(F)cc1-c1ccc2c(-c3nc(CNC(=O)C4CCN(C)C4)c[nH]3)n[nH]c2c1 (centres unmarked) [Ex-29]
units: nM
endpoint.result: 16.8

compound: CCc1cc(O)c(F)cc1-c1ccc2c(-c3nc(CNC(=O)C4CCC4)c[nH]3)n[nH]c2c1 [Ex-28]
units: nM
endpoint.result: 1.6

compound: CCc1cc(O)c(F)cc1-c1ccc2c(-c3nc(CNC(=O)c4cnc(N5CCCCC5)cn4)c[nH]3)n[nH]c2c1 [MDI-3]
units: nM
endpoint.result: 32.2

compound: CCc1cc(O)c(F)cc1-c1ccc2c(-c3nc(CN(C)CCO)c[nH]3)n[nH]c2c1 [Ex-24]
units: nM
endpoint.result: 23

compound: CCc1cc(O)c(F)cc1-c1ccc2c(-c3nc(CNC4CCN(C)C4)c[nH]3)n[nH]c2c1 (centres unmarked) [Ex-35]
units: nM
endpoint.result: 5.2

compound: CCc1cc(O)c(F)cc1-c1ccc2c(-c3nc(CNc4cccnc4)c[nH]3)n[nH]c2c1 [Ex-14]
units: nM
endpoint.result: 9.6

compound: CCc1cc(O)c(F)cc1-c1ccc2c(-c3nc(CNS(=O)(=O)C4CC4)c[nH]3)n[nH]c2c1 [Ex-18]
units: nM
endpoint.result: 3.7

compound: CCc1cc(O)c(F)cc1-c1ccc2c(-c3nc(CN4CCOCC4)c[nH]3)n[nH]c2c1 [Ex-13]
units: nM
endpoint.result: 11.3

compound: CCc1cc(O)c(F)cc1-c1ccc2c(-c3nc(CNC(=O)N4CC[C@@H](O)C4)c[nH]3)n[nH]c2c1 [Ex-22]
units: nM
endpoint.result: 1.1

compound: CCc1cc(O)c(F)cc1-c1ccc2c(-c3nc(CNC(=O)C(C)C)c[nH]3)n[nH]c2c1 [MDI-303]
units: nM
endpoint.result: 6.26

compound: CCc1cc(O)c(F)cc1-c1ccc2c(-c3nc(CN(C)C(=O)N4CC[C@@H](O)C4)c[nH]3)n[nH]c2c1 [Ex-21]
units: nM
endpoint.result: 6.9

compound: CCC(=O)NCc1c[nH]c(-c2n[nH]c3cc(-c4cc(F)c(O)cc4CC)ccc23)n1 [MDI-301]
units: nM
endpoint.result: 6.82

compound: CCc1cc(O)c(F)cc1-c1ccc2c(-c3nc(CNC(=O)N4CCOCC4)c[nH]3)n[nH]c2c1 [Ex-36]
units: nM
endpoint.result: 0.83

compound: CCc1cc(O)c(F)cc1-c1ccc2c(-c3nc(CNC(=O)OCCC#N)c[nH]3)n[nH]c2c1 [Ex-27]
units: nM
endpoint.result: 9.2
